# study system: Ribosomal protein S6 kinase alpha-3 (Homo sapiens) (UniProt P51812)
# Sequence (P51812 whole entry): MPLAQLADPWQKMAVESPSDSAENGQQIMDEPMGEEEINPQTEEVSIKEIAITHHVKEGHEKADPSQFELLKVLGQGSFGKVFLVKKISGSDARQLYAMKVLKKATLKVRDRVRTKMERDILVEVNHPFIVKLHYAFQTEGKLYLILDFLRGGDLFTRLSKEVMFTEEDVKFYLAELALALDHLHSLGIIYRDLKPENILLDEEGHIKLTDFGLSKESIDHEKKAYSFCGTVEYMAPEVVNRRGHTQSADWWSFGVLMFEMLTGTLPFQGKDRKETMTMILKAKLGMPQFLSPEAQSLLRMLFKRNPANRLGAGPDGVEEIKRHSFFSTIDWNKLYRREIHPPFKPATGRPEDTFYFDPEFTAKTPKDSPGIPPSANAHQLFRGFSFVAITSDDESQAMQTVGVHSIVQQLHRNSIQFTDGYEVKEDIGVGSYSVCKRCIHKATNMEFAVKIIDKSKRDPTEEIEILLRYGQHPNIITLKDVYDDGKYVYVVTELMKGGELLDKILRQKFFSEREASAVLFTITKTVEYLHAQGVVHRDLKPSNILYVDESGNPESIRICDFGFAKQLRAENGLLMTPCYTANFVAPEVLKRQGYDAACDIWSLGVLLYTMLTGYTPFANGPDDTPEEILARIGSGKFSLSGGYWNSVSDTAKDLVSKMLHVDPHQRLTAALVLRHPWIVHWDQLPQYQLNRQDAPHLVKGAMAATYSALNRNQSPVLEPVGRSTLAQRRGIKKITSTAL
# experimental setup: at 1 µM
# Description: GSK_PKIS: RSK2 mean inhibition at 1 uM [Nanosyn]
Listing of entries alongside the reported inhibition.
Numeric only. Scale: %

// known answers, use as guide
                            smiles_notation  measurement_label  reported
0  NC(=O)c1ccc2c(-c3ccnc(NCCCO)n3)c(-c3ccc(F)cc3)nn2c1         inhibition      1.23
1  COc1cc2c(cc1Nc1nc(Nc3cccc(F)c3C(N)=O)c3cc[nH]c3n1)N(C(=O)CN1CCN(C(C)C)CC1)CC2         inhibition      10.3
2    Cc1ccc(-c2cc3c(NC(=O)C4CC4)ncnc3o2)cc1         inhibition      2.17

Tell me inhibition of Cc1cc(O)cc(C)c1/C=C/c1cncc(C(N)=O)c1 when tested on Ribosomal protein S6 kinase alpha-3 (Homo sapiens) (UniProt P51812).
-0.35

Tell me inhibition of COc1ccc2ncn(-c3cc(O[C@H](C)c4ccccc4C(F)(F)F)c(C(N)=O)s3)c2c1 when tested on Ribosomal protein S6 kinase alpha-3 (Homo sapiens) (UniProt P51812).
6.99

Tell me inhibition of COc1c(C(N)=O)cc(-c2ccc(Cl)cc2)cc1-c1ccc(S(N)(=O)=O)cc1 when tested on Ribosomal protein S6 kinase alpha-3 (Homo sapiens) (UniProt P51812).
2.53

Tell me inhibition of NS(=O)(=O)c1cccc(N/C=C2\C(=O)Nc3ccccc32)c1 when tested on Ribosomal protein S6 kinase alpha-3 (Homo sapiens) (UniProt P51812).
15.2

Tell me inhibition of COc1ccc(-c2nn3ncccc3c2-c2ccnc(Nc3ccc(F)c(F)c3)n2)cc1 when tested on Ribosomal protein S6 kinase alpha-3 (Homo sapiens) (UniProt P51812).
7.14

Tell me inhibition of N#Cc1ccc2c(-c3ccnc(NC4CC4)n3)c(-c3ccc(F)cc3)nn2c1 when tested on Ribosomal protein S6 kinase alpha-3 (Homo sapiens) (UniProt P51812).
0.42

Tell me inhibition of O=C(Nc1n[nH]c2nnc(-c3cccnc3)cc12)C1CC1 when tested on Ribosomal protein S6 kinase alpha-3 (Homo sapiens) (UniProt P51812).
0.86

Tell me inhibition of CN(c1ccc(NC(=O)NCCN2CCOCC2)cc1)c1ccnc(Nc2ccc(CS(C)(=O)=O)cc2)n1 when tested on Ribosomal protein S6 kinase alpha-3 (Homo sapiens) (UniProt P51812).
2.69

Tell me inhibition of Fc1ccc(Nc2nccc(-c3c(-c4ccc(C(F)(F)F)cc4)nn4ncccc34)n2)cc1F when tested on Ribosomal protein S6 kinase alpha-3 (Homo sapiens) (UniProt P51812).
-1.74

Tell me inhibition of O=C(O[C@H]1CN[C@H](C#Cc2cc3ncnc(Nc4ccc(OCc5cccc(F)c5)c(Cl)c4)c3s2)C1)N1CCOCC1 when tested on Ribosomal protein S6 kinase alpha-3 (Homo sapiens) (UniProt P51812).
5.86

----------
# study system: Serine/threonine-protein kinase 3 (Homo sapiens);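 note: reported value is the mean percent inhibition of MST2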
# experimental setup: at 0.1 µM
measurement label: inhibition (%)
Numeric only. Scale: %

// known answers, use as guide
>>> df
                            smiles_notation  unit_symbol  reported
0  CCCNc1cccc(-n2ncc3c(N/N=C/c4ccncc4)ncnc32)c1            %      5.92
1  CS(=O)(=O)CCNCc1ccc(-c2ccc3ncnc(Nc4ccc(OCc5ccccc5)cc4)c3c2)o1            %      5.36
2  CCN1CCC(C(=O)Nc2n[nH]c3nnc(-c4cccc(F)c4F)cc23)CC1            %     -0.56
3  NS(=O)(=O)c1cccc(N/C=C2\C(=O)Nc3ccccc32)c1            %      5.78
4  CC(C)c1ccc(-c2cc(-c3c[nH]nc3-c3ccccn3)ccn2)cc1            %      1.18

Give inhibition for the following molecule: N#Cc1cccc(Nc2ncc(-c3ccccc3)o2)c1
4.16

Give inhibition for the following molecule: CN1CCC(n2cnc(-c3ccc(F)cc3)c2-c2ccnc(NCCO)n2)CC1
7.55

Give inhibition for the following molecule: CC1(C)CC(n2cnc(-c3ccc(F)cc3)c2-c2ccnc(N)n2)CC(C)(C)N1
-0.38

Give inhibition for the following molecule: CS(=O)(=O)Nc1ccc(-c2ccc3c(NC(=O)C4CC4)n[nH]c3c2)cc1
5.64

Give inhibition for the following molecule: COc1cc2c(cc1Nc1nc(Nc3cccc(F)c3C(N)=O)c3cc[nH]c3n1)N(C(=O)CN1CCN(C(C)C)CC1)CC2
2.26

Taken from ChEMBL document CHEMBL1961873.
